This collection of values is drawn from paper PMC4447944.

Target: hBUB1 (Homo sapiens, UniProt O43683)
Sequence (O43683 whole entry): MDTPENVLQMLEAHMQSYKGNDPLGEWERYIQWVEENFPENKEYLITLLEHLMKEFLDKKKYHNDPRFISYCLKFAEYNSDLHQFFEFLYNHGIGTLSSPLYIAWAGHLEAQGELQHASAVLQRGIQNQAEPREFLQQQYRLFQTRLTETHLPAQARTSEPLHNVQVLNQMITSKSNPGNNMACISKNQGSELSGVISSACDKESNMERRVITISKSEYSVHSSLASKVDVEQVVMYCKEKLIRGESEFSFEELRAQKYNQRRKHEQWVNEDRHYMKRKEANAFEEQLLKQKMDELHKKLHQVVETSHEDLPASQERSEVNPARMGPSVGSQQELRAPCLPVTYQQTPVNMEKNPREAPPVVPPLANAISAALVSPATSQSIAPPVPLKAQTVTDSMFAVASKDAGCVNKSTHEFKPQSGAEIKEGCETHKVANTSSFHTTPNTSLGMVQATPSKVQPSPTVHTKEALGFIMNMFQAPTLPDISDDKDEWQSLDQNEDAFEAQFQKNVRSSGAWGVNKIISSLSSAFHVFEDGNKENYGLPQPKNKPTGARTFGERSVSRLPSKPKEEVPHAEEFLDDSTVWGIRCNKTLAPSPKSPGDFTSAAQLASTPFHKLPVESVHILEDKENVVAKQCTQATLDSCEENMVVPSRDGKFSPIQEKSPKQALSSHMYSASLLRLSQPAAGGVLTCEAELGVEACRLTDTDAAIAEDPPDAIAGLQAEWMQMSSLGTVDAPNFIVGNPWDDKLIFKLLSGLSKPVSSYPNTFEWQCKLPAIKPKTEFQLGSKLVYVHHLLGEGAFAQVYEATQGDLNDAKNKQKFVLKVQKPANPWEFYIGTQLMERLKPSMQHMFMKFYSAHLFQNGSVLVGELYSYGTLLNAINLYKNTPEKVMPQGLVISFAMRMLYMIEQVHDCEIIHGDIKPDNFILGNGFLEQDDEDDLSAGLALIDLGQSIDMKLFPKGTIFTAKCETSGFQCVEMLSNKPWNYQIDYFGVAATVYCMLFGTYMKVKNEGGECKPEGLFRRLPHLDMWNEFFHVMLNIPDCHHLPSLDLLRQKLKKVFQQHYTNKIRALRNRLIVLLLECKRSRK
pIC50: −log10 of the molar value.
READOUT LABEL: pIC50

Ask: Look up pIC50 for this compound: Cc1cn(CCN2CCN(c3ccccc3-c3cc(C#N)cc(C(=O)NCCCN4CCCC4)c3)CC2)c2ccccc12
Result: < 4.70

====

Biological target: hRSK4(Kin.Dom.1-N-term) (Homo sapiens)
Sequence (Q9UK32 73-330 limits assumed): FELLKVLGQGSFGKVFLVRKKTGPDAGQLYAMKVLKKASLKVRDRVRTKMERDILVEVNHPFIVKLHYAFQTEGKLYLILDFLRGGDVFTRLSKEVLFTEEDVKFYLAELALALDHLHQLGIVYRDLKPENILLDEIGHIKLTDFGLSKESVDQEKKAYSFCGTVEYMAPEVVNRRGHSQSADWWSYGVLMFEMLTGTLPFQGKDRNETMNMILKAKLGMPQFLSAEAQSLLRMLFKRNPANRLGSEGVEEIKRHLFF
pIC50: −log10 of the molar value.
READOUT LABEL: pIC50

Ask: Look up pIC50 for this compound: Cc1cn(CCN2CCN(c3ccccc3-c3cc(C#N)cc(C(=O)NCCCN4CCCC4)c3)CC2)c2ccccc12
Result: < 4.70

====

Biological target: hFLT3(ITD)
Sequence (P36888 27-993, change not shown): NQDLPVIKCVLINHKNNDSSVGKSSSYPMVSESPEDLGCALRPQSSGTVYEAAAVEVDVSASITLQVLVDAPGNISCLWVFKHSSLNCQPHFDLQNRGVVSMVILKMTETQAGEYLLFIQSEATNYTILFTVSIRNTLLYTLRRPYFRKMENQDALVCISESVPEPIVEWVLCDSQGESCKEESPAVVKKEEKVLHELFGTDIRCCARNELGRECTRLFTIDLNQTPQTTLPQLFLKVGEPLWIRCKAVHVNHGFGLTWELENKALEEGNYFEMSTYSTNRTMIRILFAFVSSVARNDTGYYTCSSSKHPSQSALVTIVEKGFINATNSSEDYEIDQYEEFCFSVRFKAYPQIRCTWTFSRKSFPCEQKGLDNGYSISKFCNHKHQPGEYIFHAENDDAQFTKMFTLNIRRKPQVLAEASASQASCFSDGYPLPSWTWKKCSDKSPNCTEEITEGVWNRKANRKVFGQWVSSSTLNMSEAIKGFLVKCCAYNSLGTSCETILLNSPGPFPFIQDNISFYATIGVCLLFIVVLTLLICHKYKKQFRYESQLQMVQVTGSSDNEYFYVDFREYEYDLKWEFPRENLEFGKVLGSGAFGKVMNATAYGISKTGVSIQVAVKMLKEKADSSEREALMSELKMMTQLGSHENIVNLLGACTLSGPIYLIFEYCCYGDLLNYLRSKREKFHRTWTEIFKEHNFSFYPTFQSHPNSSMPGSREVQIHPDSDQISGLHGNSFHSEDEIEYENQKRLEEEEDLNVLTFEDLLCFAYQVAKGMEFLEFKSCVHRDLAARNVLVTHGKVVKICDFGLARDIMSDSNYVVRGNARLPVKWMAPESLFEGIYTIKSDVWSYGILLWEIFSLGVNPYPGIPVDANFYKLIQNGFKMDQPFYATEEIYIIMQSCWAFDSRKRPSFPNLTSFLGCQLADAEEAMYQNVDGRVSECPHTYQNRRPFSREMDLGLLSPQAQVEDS
Test: KINOMEscan
pIC50: −log10 of the molar value.
READOUT LABEL: pIC50

Ask: Look up pIC50 for this compound: Cc1cn(CCN2CCN(c3ccccc3-c3cc(C#N)cc(C(=O)NCCCN4CCCC4)c3)CC2)c2ccccc12
Result: < 4.70

====

Target: hRSK1(Kin.Dom.2-C-term) (Homo sapiens)
Sequence (Q15418 418-675 limits assumed): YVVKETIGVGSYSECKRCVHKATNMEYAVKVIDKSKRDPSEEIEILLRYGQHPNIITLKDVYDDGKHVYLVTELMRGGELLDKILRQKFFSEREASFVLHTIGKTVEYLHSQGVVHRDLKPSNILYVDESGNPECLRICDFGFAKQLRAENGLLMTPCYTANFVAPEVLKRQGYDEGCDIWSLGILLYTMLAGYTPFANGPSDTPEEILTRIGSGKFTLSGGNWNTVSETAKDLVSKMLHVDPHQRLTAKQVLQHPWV
READOUT LABEL: IC50

Ask: Look up IC50 for this compound: Cc1cn(CCN2CCN(c3ccccc3-c3cc(C#N)cc(C(=O)NCCCN4CCCC4)c3)CC2)c2ccccc12
Result: > 20 µM

====

Target sequence: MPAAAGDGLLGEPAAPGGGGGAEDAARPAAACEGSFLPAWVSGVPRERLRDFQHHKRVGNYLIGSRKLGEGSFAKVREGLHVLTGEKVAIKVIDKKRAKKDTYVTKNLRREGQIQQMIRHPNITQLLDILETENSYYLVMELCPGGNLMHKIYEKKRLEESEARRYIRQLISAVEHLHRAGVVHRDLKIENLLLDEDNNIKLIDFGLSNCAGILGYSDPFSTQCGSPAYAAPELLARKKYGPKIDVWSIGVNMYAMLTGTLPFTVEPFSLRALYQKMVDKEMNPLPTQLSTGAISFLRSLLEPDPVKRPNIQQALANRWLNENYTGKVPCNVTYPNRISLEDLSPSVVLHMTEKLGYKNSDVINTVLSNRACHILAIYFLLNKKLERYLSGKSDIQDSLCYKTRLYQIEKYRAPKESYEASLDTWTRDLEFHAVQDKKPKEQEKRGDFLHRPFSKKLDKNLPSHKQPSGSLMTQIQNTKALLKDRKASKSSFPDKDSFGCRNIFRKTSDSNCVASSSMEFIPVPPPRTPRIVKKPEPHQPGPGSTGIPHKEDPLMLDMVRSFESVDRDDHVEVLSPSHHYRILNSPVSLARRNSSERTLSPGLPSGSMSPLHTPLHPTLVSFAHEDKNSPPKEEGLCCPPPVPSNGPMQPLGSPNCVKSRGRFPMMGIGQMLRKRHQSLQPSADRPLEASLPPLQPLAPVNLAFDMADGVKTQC
READOUT LABEL: IC50

Ask: Look up IC50 for this compound: Cc1cn(CCN2CCN(c3ccccc3-c3cc(C#N)cc(C(=O)NCCCN4CCCC4)c3)CC2)c2ccccc12 [LLY-507]
Result: > 20 µM

====

Target chain: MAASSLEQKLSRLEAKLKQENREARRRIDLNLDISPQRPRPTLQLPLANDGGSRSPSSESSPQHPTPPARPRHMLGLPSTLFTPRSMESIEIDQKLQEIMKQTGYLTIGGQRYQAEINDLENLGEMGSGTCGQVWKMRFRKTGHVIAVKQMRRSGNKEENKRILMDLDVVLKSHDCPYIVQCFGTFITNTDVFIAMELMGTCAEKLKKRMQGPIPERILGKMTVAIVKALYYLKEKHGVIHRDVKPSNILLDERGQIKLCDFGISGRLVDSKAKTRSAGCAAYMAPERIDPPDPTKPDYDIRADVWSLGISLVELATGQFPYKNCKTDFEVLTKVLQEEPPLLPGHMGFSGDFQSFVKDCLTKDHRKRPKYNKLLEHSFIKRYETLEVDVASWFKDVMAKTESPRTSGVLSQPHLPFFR
READOUT LABEL: IC50

Ask: Look up IC50 for this compound: Cc1cn(CCN2CCN(c3ccccc3-c3cc(C#N)cc(C(=O)NCCCN4CCCC4)c3)CC2)c2ccccc12
Result: > 20 µM
